Biological target: IRAK-4 (Homo sapiens, UniProt Q9NWZ3)
Assay: IRAK-4 ELISA, PBMC degradation
Assay type: cell-based
Design: endogenous in cells; host or cells: PBMC
Settings: treated overnight
Observation Type: DC50

CC(C)Oc1cc2c(cc1NC(=O)c1cnn3cccnc13)CN(C1CCN(C[C@H]3CCCN(c4ccc5c(c4)C(=O)N(C4CCC(=O)NC4=O)C5=O)C3)CC1)C2=O (stereo partly drawn) : 1 to 5 nM
O=C1CCC(N2C(=O)c3ccc(N4CC(F)(CN5CCC(n6cc7cc(NC(=O)c8cnn9cccnc89)c(C(F)F)cc7n6)CC5)C4)cc3C2=O)C(=O)N1 (stereo not drawn) : < 1 nM

Please look at the following compound next.
Task: Endpoint output: DC50 of CC(C)Oc1cc2c(cc1NC(=O)c1cnn3cccnc13)CN(C1CCN(C(=O)C3CN(c4ccc5c(c4)C(=O)N(C4CCC(=O)NC4=O)C5=O)C3)CC1)C2=O (stereo not drawn) . Value?
Result: 1 to 5 nM

----------
Measured Dmax values are reported for all entries that follow.
Target: IRAK-4 (Homo sapiens)
Sequence (Q9NWZ3 1-460): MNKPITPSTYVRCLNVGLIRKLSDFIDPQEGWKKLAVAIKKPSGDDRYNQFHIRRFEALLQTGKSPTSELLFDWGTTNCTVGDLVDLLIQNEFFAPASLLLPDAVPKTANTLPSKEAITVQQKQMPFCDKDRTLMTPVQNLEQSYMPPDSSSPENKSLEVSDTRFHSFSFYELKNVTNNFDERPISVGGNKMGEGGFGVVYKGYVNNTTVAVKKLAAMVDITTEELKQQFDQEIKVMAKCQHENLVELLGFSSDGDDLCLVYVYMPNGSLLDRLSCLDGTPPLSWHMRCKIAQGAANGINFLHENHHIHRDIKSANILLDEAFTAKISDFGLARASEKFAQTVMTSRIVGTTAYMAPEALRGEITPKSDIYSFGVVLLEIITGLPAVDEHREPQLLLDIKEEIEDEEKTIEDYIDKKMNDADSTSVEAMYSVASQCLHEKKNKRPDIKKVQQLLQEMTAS
Assay: IRAK-4 ELISA, PBMC degradation
Format: cell-based
Parameters: endogenous in cells; host or cells: PBMC
Settings: treated overnight

Examples from the recorded data:
CC(C)Oc1cc2nn(C3CCN(CC4(F)CN(c5cc6c(cc5F)C(=O)N(C5CCC(=O)NC5=O)C6=O)C4)CC3)cc2cc1NC(=O)c1cnn2cccnc12 (centres unmarked) : ≥ 90%
O=C1CCC(N2C(=O)c3ccc(N4CCC(CN5CCC(n6cc7cc(NC(=O)c8cnn9cccnc89)c(OCC(F)F)cc7n6)CC5)CC4)cc3C2=O)C(=O)N1 (centres unmarked) : 80 to 90%
O=C1CC[C@H](N2C(=O)c3ccc(N4CC(F)(CN5CCC(n6cc7cc(NC(=O)c8cnn9cccnc89)c(OCC8CC8)cc7n6)CC5)C4)cc3C2=O)C(=O)N1 : ≥ 90%

Task: Could you share which Dmax value was measured for O=C1CCC(N2C(=O)c3ccc(N4CC(F)(CN5CCC(n6cc7cc(NC(=O)c8cnn9cccnc89)c(OC8CC8)cc7n6)CC5)C4)cc3C2=O)C(=O)N1 (centres unmarked) ?
Result: ≥ 90%

Task: Then O=C1CCC(N2C(=O)c3ccc(N4CCCC5(CN(CCN6CCC(n7cc8cc(NC(=O)c9cnn%10cccnc9%10)c(OCC9CC9)cc8n7)CC6)C5)C4)cc3C2=O)C(=O)N1 (centres unmarked) ?
Result: < 70%

----------
Reported DC50 is given for each of the following compounds.
Target: IRAK-4 (Homo sapiens, UniProt Q9NWZ3)
Sequence (Q9NWZ3 1-460): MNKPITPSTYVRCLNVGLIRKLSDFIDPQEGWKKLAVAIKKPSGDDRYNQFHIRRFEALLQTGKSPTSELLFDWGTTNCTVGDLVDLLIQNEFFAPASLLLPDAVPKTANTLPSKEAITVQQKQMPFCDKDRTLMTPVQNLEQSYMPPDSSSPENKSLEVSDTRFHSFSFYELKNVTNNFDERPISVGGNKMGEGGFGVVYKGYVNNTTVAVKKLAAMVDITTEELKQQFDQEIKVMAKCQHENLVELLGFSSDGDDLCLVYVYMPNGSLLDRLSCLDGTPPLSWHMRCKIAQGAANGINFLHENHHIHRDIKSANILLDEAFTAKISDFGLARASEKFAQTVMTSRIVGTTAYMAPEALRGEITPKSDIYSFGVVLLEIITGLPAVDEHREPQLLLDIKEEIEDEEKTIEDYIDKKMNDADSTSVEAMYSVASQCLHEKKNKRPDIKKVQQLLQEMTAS
Assay: IRAK-4 ELISA, PBMC degradation
Format: cell-based
Parameters: endogenous in cells; host or cells: PBMC
Conditions: treated overnight

// below: answered compounds
O=C1CCC(N2C(=O)c3ccc(C4CCN(C[C@H]5CC[C@H](n6cc7cc(NC(=O)c8cnn9cccnc89)c(OCC8CC8)cc7n6)CC5)CC4)cc3C2=O)C(=O)N1 (some centres unmarked) [Example 429] : < 1 nM
COc1c(N2CC(CN3CCC(n4cc5cc(NC(=O)c6cnn7cccnc67)c(OCC6CC6)cc5n4)CC3)C2)ccc2c1C(=O)N(C1CCC(=O)NC1=O)C2=O (centres unmarked) [Example 285] : 1 to 5 nM
COC1(CN2CCC(n3cc4cc(NC(=O)c5cnn6cccnc56)c(OCC5CC5)cc4n3)CC2)CN(c2ccc3c(c2)C(=O)N(C2CCC(=O)NC2=O)C3=O)C1 (centres unmarked) [Example 234] : < 1 nM
CN(C1CCN(c2ccc3c(c2)C(=O)N(C2CCC(=O)NC2=O)C3=O)CC1)[C@H]1CC[C@H](n2cc3cc(NC(=O)c4cnn5cccnc45)c(OCC(F)F)cc3n2)CC1 (some centres unmarked) [Example 358] : < 1 nM

Task: GET /values?readout=DC50&item= O=C1CCC(N2Cc3cc(N4CC(F)(CN5CCC(n6cc7cc(NC(=O)c8cnn9cccnc89)c(OCC8CC8)cc7n6)CC5)C4)cc(F)c3C2=O)C(=O)N1 (centres unmarked) [Example 420]
Result: < 1 nM

----------
Molecular target: UniProt:Q9NWZ3
Sequence (Q9NWZ3 1-460): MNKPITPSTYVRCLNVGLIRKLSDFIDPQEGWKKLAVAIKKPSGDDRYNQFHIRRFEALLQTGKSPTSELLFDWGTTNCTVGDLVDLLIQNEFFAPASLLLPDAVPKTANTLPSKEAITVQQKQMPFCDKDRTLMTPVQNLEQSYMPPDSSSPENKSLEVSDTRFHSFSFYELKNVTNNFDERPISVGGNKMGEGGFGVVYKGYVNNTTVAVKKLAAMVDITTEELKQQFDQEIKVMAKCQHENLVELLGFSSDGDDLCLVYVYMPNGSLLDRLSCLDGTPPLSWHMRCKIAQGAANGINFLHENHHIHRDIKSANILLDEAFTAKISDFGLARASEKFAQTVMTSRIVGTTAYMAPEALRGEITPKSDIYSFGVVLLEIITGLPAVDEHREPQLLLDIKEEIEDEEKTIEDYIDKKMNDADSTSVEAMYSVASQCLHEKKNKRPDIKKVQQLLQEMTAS
Experiment: IRAK-4 ELISA, PBMC degradation
Type: cell-based
Parameters: endogenous in cells; host or cells: PBMC
Details: treated overnight
Below is a list of entries, each paired with its recorded Dmax value.

Check out these entries, answers already filled in.
O=C1CCC(NC(=O)c2ccc(N3CCC(CN4CCC(N5Cc6cc(NC(=O)c7cnn8cccnc78)c(N7CCC(N8CCC8)CC7)cc6C5=O)CC4)CC3)cc2F)C(=O)N1 (centres unmarked) [Example 310] : ≥ 90%
CN(CCN1CCN(c2ccc3c(c2)C(=O)N(C2CCC(=O)NC2=O)C3=O)CC1)[C@H]1CC[C@H](n2cc3cc(NC(=O)c4cnn5cccnc45)c(OCC4CC4)cc3n2)CC1 (some centres unmarked) [Example 359] : 80 to 90%
CN(C1CN(c2ccc3c(c2)CN(C2CCC(=O)NC2=O)C3=O)C1)[C@H]1CC[C@H](n2cc3cc(NC(=O)c4cnn5cccnc45)c(OCC(F)F)cc3n2)CC1 (some centres unmarked) [Example 363] : ≥ 90%

Task: Query (compound): O=C1CCC(N2C(=O)c3ccc(N4CCO[C@H](CN5CCC(n6cc7cc(NC(=O)c8cnn9cccnc89)c(OCC8CC8)cc7n6)CC5)C4)cc3C2=O)C(=O)N1 (some centres unmarked) [Example 177] ; field requested: Dmax
Result: ≥ 90%

Task: CC(C)Oc1cc2nn(C3CCN(CC4CCN(c5ccc6c(c5)C(=O)N(C5CCC(=O)NC5=O)C6=O)CC4)CC3)cc2cc1NC(=O)c1cnn2cccnc12 (centres unmarked) [Example 138] , same question.
Result: ≥ 90%

Task: What do we get for CC(C)Oc1cc2c(cc1NC(=O)c1cnn3cccnc13)CN(C[C@@H](F)C1CCN(CC3CCN(c4ccc5c(c4)C(=O)N(C4CCC(=O)NC4=O)C5=O)CC3)CC1)C2=O (some centres unmarked) [Example 18] ?
Result: ≥ 90%
